Field: C0. Provide a value for each of the compounds that follow.
- Test Summary: Pharmacokinetic parameters after oral or intravenous administration
- Format: in vivo
- Study Conditions: rat, plasma; rats, Intravenous (IV), 1 mg/kg
// unit must come after the numeric part

- Compound: "O=C(Cc1c[nH]c2ccc(Cl)cc12)Nc1nc2ccccc2s1 [Comparative Example 1, reference compound]"
  C0: "406 ng/mL"

Let's switch to this compound now.
C0 reading for O=C(Cc1c[nH]c2ccc(Cl)cc12)Nc1nc2ccc(N3CCOCC3)cc2s1 [Compound 6] : 1420 ng/mL
